study_target: T1, human recombinant soluble CD73 protein (human, UniProt P21589 27-547)
T1 construct: also called huCD73; rhCD73
T1 sequence: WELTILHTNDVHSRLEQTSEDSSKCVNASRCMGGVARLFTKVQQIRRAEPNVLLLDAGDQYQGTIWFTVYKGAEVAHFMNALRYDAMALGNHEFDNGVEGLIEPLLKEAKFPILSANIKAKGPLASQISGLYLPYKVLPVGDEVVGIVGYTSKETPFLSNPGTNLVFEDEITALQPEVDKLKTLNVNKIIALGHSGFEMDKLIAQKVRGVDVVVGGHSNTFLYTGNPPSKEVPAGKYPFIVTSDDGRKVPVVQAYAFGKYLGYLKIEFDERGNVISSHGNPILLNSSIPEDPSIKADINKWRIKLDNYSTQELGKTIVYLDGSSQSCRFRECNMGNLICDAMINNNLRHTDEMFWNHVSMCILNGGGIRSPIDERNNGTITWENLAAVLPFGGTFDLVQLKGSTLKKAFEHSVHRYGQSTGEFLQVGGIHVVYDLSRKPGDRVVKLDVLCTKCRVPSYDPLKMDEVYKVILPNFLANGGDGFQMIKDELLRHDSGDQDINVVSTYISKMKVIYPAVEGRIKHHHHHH
measurement_notes: SPR, Ab captured on Protein A, soluble huCD73 as analyte
assay_endpoint: Kd (nM)

H4L1 (antibody, human IgG1, V domains shown) VH: QIQLVQSGAEVKKPGASVKVSCKASGYAFASYNMYWVRQAPGQSLEWIGYIDPYNGGSSYNLTFKGKATLTVDKSASTAYMELSSLRSEDTAVYYCARGYGNYKAWFAYWGQGTLVTVSS VL: DIQMTQSPSSLSASVGDRVTITCKASQSVSNDVAWYQQKPGKAPKLLIYYASTRYTGVPSRFSGSGYGTDFTFTISSLQPEDIATYYCQQDYSSLTFGQGTKLEIK ... 1.7
H4L4 (antibody, human IgG1, V domains shown) VH: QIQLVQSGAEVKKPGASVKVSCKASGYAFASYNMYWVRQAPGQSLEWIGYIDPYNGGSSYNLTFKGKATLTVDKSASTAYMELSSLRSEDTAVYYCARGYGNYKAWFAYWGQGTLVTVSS VL: DVQMTQSPSSLSASVGDRVTITCKASQSVSNDVAWYQQKPGKAPKLLIYYASTRYTGVPDRFSGSGYGTDFTFTISSLQPEDIATYFCQQDYSSLTFGQGTKLEIK ... 1.2
H0L4 (antibody, human IgG1, V domains shown, H0 VH limits counted by alignment with H1) VH: QVQLVQSGAEVKKPGASVKVSCKASGYTFTSYNMYWVRQAPGQRLEWMGYIDPYNGGSSYNLTFKGRVTITRDTSASTAYMELSSLRSEDTAVYYCARGYGNYKAWFAYWGQGTLVTVSS VL: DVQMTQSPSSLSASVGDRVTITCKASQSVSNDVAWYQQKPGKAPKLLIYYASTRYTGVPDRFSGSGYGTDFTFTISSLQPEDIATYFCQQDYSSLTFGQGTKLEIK ... 0.6
